System: OVCAR-4 ovarian
assayMethodText: NCI-60 one-dose screen, 48 h
conditionDescription: 10 µM unless noted
Compounds without any hit were thinned out: in the full panel of roughly 83,000, 20% have a hit. Calls of active or inactive are those of the source. How the source made its calls: active means growth percent below 10; inactive means the rest.
Parameter call: string, one of active, inactive

Would you please look over these solved cases?
O=C(N/N=C/c1ccc(F)cc1)c1ccc(C(F)(F)F)nc1Nc1cccc(C(F)(F)F)c1 ... active
Cc1ccc(-n2c(=S)[nH]c3sc4c(c3c2=O)CCC(=O)C4)cc1 ... inactive
CN(C)CCNC(=O)c1cccc(-c2cnc3ccc(-c4ccc5c(c4)OCO5)nn23)c1 ... inactive
Cn1ccc2c3c(ccc21)CC3=O ... inactive
Cc1ccccc1NC(=O)c1sc2nc(C)c(C(=O)/C=C/c3ccccc3)cc2c1N ... inactive
CCCCCCCCn1ccc2cc(NC(=O)Cn3cc(CN4CCCCC4)nn3)ccc21 ... inactive
N#Cc1cccc(-c2c(-c3ccc4ccccc4c3)oc3ccccc3c2=O)c1 ... inactive
CCOC(=O)c1c(NC(=O)c2ccc(C(C)C)cc2)sc2c(CN(C)C)c(O)ccc12 ... inactive

Prompt: What did the test return for CCC(C)N(c1ccc(Cl)cc1)c1nc(-c2ccc(Br)cc2)cs1 (stereo unspecified) ?
Completion: inactive

Prompt: Returns: the outcome recorded for O=C1C(Cl)=C(Nc2ccc(O)cc2)C(=O)N1Cc1ccc(Cl)cc1 in this assay.
Completion: inactive

Prompt: Could you please tell me the result logged for C1=CN2CC(c3ccccc3)=NNC2c2ccccc21 (stereo unspecified) in this assay?
Completion: inactive

Prompt: Please indicate how the test categorized O=C(CCc1nnc(Cn2cnc3nc[nH]c3c2=O)o1)c1nc2ncccc2[nH]1 .
Completion: inactive

Prompt: GET /call?item= COc1ccc(-c2csc(N(C(=O)N3CCN(c4cc5c(cc4F)c(=O)c(C(=O)O)cn5C4CC4)CC3)c3ccccc3)n2)cc1 returns the recorded outcome of this test.
Completion: inactive

Prompt: Can you look up the reported call for COc1ccc(C(=S)N2CCN(c3ccccc3Cl)CC2)cc1OC for me?
Completion: inactive

Prompt: Test call, this molecule: CCc1ccc(C(=O)/C=C/C23c4ccccc4C(c4ccccc42)C2C(=O)NC(=O)C23)cc1 (stereo unspecified)
Completion: inactive

Prompt: Could you check what this test reported for CCN(CC)c1nc(SCc2ccccc2Cl)ncc1C ?
Completion: inactive

Prompt: Please indicate how the test categorized O=C(Nc1ccc(NC(=O)c2cc(=O)[nH]c3ccccc23)cc1)Nc1cccc(C(F)(F)F)c1 .
Completion: inactive

====

System: MDA-MB-435 melanoma
assayMethodText: NCI-60 one-dose screen, 48 h
conditionDescription: 10 µM unless noted
The panel holds about 83,000 compounds, 20% with a hit somewhere; the sample as a whole holds those more often. Activity calls are given as the source filed them. Rule for the calls: active = growth percent below 10; inactive = the rest.
Pick one: active, inactive

Consider the following illustrative entries.
COC1C[C@H](O[C@@H]2C[C@H](O[C@@H]3C[C@H](O[C@@H]4C(=O)c5c(cc6cc(O[C@H]7C[C@@H](O[C@H]8C[C@@H](O)[C@H](O)C(C)O8)[C@H](O)C(C)O7)c(C)c(O)c6c5O)C[C@H]4C(OC)C(=O)[C@@H](O)[C@@H](C)O)OC(C)[C@H]3O)OC(C)[C@@H]2O)OC(C)[C@@H]1O (some centres undefined) ... active
Nc1ncnc2c1N=C(c1ccc(Cl)cc1)CC(c1ccc3c(c1)OCO3)N2 (centres undefined) ... inactive
Cc1cccc2c1NC(=O)C2(c1ccc(O)cc1)c1ccc(O)cc1 ... inactive

Field: next compound
Prompt: // outcome(item) with item = CCOC(=O)c1[nH]c(=O)c2c(C)nc(-c3ccccc3)cc2c1O
Completion: inactive

====

System: HOP-62 NSCLC
assayMethodText: NCI-60 one-dose screen, 48 h
conditionDescription: 10 µM unless noted
Compounds without any hit were thinned out: in the full panel of roughly 83,000, 20% have a hit. Active and inactive are the calls of the source. How the source made its calls: active means growth percent below 10; inactive means the rest.
Would you mind answering with one of these outcomes? active, inactive

Completed entries (count: 7):
CCCCN[C@H]1CC[C@@]2(C)[C@@H](CC[C@@]3(C)[C@H]2[C@H](O)C[C@H]2/C(=C(\CCC=C(C)C)C(=O)OC)[C@@H](OC(C)=O)C[C@@]23C)[C@@H]1C ... inactive
CC(=O)N1N=C(c2ccc(Nc3nc(Nc4ccc(Cl)cc4)nc(Nc4ccc(Cl)cc4)n3)cc2)CC1c1ccco1 (stereo not drawn) ... inactive
CC(=O)OCc1nc(C#N)c(N(C)C)o1 ... inactive
CCN1C(=O)N(CC)C2C1NN=c1s/c(=C\c3ccc(Cl)cc3Cl)c(=O)n12 (stereo not drawn) ... inactive
CCOC(=O)c1[nH]c(=O)c2c(C)nc(-c3ccccc3)cc2c1O ... inactive
C=C(CNCCc1ccc(O)cc1)[C@@H]1CC[C@]2(CO)CC[C@]3(C)[C@H](CC[C@@H]4[C@@]5(C)CCC(NCCO)C(C)(C)[C@@H]5CC[C@]43C)[C@@H]12 (stereo partly drawn) ... active
COc1cc(-c2cc(-c3ccc(N(C)C)cc3)nc(N3CCC(O)CC3)c2C#N)cc(OC)c1OC ... inactive

Prompt: Given Nc1nc2c([nH]1)c1[nH]c3ccccc3c1c1[nH]c3ccccc3c21 , state the outcome it received in this test.
Completion: inactive

====

Test system: UACC-62 melanoma
assayMethodText: NCI-60 one-dose screen, 48 h (100 = growth as untreated, 0 = no growth, -100 = all killed)
conditionDescription: 10 µM unless noted
The panel holds about 83,000 compounds, 20% with a hit somewhere; the sample as a whole holds those more often.
property: growth (%)
# value in %; strip the unit string

O=C1/C(=C\c2cn(-c3ccccc3)nc2-c2ccc(-c3cccs3)cc2)CCc2ccccc21 ... 47.7
COP(=O)(OC)C(C)(C)CC(=O)CC(C#N)(C#N)C(C#N)C#N ... 96.1

Prompt: I would be grateful if you could share the reported growth for N#Cc1nc(-c2ccccc2)oc1S(=O)(=O)N1CCOCC1 .
Completion: 91

Prompt: Look up growth: O=C1/C(=C/c2ccc(Cl)cc2)COc2ccc(O)c(O)c21
Completion: 4.2

Prompt: # query: growth of entry CS(=O)(=O)C1=CN(CCO)C(=O)N2CCCN=C12
Completion: 102

Prompt: Sample Cn1c(O)c(C=NCCN=Cc2c(O)n(C)c(=O)n(C)c2=O)c(=O)n(C)c1=O — what was its growth?
Completion: 84.1

====

System: U251 CNS
assayMethodText: NCI-60 one-dose screen, 48 h (100 = growth as untreated, 0 = no growth, -100 = all killed)
conditionDescription: 10 µM unless noted
Compounds without any hit were thinned out: in the full panel of roughly 83,000, 20% have a hit.
property: growth (%)
State just the number; it will be interpreted in %.

Known growth results, listed for orientation:
Nc1ncnc2c1N=C(c1ccc(Cl)cc1)CC(c1ccc3c(c1)OCO3)N2 (stereo not drawn) ... 92.8
CCN(CC)CCOc1ccc(-c2c(-c3ccccc3)c(=O)oc3ccccc23)cc1 ... 85.5
COC(=O)[C@H]1CCCN1C[C@@H](O)CN1C(=O)/C(=C\c2cc(OC)c(OC)c(OC)c2)c2ccccc21 ... 87.3

Prompt: I have this compound here, CC1=NN(c2nc(SCC(=O)Nc3nc4ccc(C)cc4s3)nc(-c3ccccc3)c2C#N)C(=O)C1 , and I need its recorded growth.
Completion: 102

Prompt: May I ask what growth has been recorded for O=C(CSc1nc(-c2ccccc2)[nH]c1S(=O)(=O)c1ccccc1)NC1CC1 ?
Completion: 20.1

Prompt: Please look up its growth: Cc1c(-n2nnc(-c3nc4ccccc4s3)c2N)c(=O)n(-c2ccccc2)n1C
Completion: 101

Prompt: Which growth value is on record for CCCCN[C@H]1CC[C@@]2(C)[C@@H](CC[C@@]3(C)[C@H]2[C@H](O)C[C@H]2/C(=C(\CCC=C(C)C)C(=O)OC)[C@@H](OC(C)=O)C[C@@]23C)[C@@H]1C ?
Completion: 98.2

Prompt: Returns the measured growth for the input compound. Input: CSc1nnc(-c2cnn3c2NC(c2ccccc2)C3)n1-c1ccc(C(F)(F)F)cc1 (stereo not drawn)
Completion: 58

====

Test system: COLO 205 colon
assayMethodText: NCI-60 one-dose screen, 48 h (100 = growth as untreated, 0 = no growth, -100 = all killed)
conditionDescription: 10 µM unless noted
About 83,000 compounds went through this panel and 20% of them were active in at least one assay; those are over-represented in the sample as a whole.
property: growth (%)
Write the number in % without appending the unit.

CCN1CCN(Cc2cn(CC(=O)Nc3ccc4c(ccn4Cc4ccccc4)c3)nn2)CC1 ... 99.4
Nc1ncnc2c1N=C(c1ccc(Cl)cc1)CC(c1ccc3c(c1)OCO3)N2 (configuration not stated) ... 98.6
N#CC1C=CN(CC(N)=O)c2ccc3cccnc3c21 (configuration not stated) ... 80.3
COc1ccc(C(=O)Nc2cccc(C3CC(=O)c4c(cc(OC)c(OC)c4OC)O3)c2)cc1 (configuration not stated) ... -5
CCC(C)N(c1ccc(Cl)cc1)c1nc(-c2ccc(Br)cc2)cs1 (configuration not stated) ... 112

Prompt: What measured growth goes with C[C@@H]1CCC[C@H]1CC(N)C(=O)O (some centres not stated) ?
Completion: 116

Prompt: Field request: growth | item: CN1CCN(c2ccc(NC(=O)c3cncnc3Nc3ccc(OCc4ccccn4)c(Cl)c3)cc2)CC1
Completion: -3.55

Prompt: Please give the measured growth for this compound: COc1ccc2[nH]cc(-c3nc(-c4cn(C)c5c(Cl)nccc45)cs3)c2c1
Completion: 32.9

Origin of values: PubChem BioAssay (NCI)
